Every entry's value here was drawn from patent US20250027068.

target: pooled human IgG
Value Type: Enzyme Activity Endpoint Assay (purified): Fab′2 (ng/µL)
Your answer is read as ng/µL, so omit the unit and give the number.

Illustrative cases are given below, each with its answer.
Exam item: What value of measured Enzyme Activity Endpoint Assay (purified): Fab′2 is listed for PRT-82 (protein) MANQEIRYSEVTPSTITSVWTKGVTPPAQFIQNEDVFHAPYVANQGWYDITKTFNGKDDLLCGAATAGNMLHWWFDQNKEEIEAYLKKHPEKQKIMFGDQELLDVRKVINTKDDQTNSALFNYFKDKAFPNLSARRLGVMPDLVLDMFINGYYLNVGKTQTTDVNRTYQNKDRRGGIFDAVFTRGDQSKLLTARHDFKEKNLNEISDLIKQELTEGKALALSHTYANVSINHVINLWGADFDANGNLEAIYVTDSDSNASIGMKKYFVGVNSAGKVAISAKEIEEDNIGAQVLGLFTLSTGQDIWNKTN ?
Marked response: 9

Exam item: Now consider PRT-62 (protein) MANQEIRYSEVTPYHVTSVWTKGVTPPANFTQGEDVFHAPYVANQGWYDITKTFNGKDDLLCGAATAGNMLHWWFDQNKDQIKRYLEEHPEKQKINFNGEQMFDVKEAIDTKNHQLDSKLFEYFKEKAFPYLSTKHLGVFPDHVIDMFINGYRLSLTNHGPTPVKEGSKDPRGGIFDAVFGRGDQSKLLTSRHDFKEKNLKEISDLIKKELTEGKALGLSHTYANVRINHVINLWGADFDSNGNLKAIYVTDSDSNASIGMKKYFVGVNSAGKVAISAKEIKEDNIGAQVLGLFTLSTGQDSWNQTN .
Marked response: 15

Next:
Exam item: What value of measured Enzyme Activity Endpoint Assay (purified): Fab′2 is listed for PRT-68 (protein) MANQEIRYSEVTPYHVTSVWTKGVTPPANFTQGEDVFHAPYVANQGWYDITKTFNGKDDLLCGAATAGNMLHWWFDQNKDQIKRYLEEHPEKQKINFNGEQMFDVKEAIDTKNHQLDSKLFEYFKEKAFPYLSTKHLGVFPDHVIDMFINGYRLSLTNHGPTPVKEGSKDPRGGIFDDVFTRGDQSKLLTSRHDFKEKNLKEISDLIKKELTEGKALGLSHTYANVRINHVINLWGADFDSNGNLKAIYVTDSDSNASIGMKKYFVGVNSAGKVAISAKEIKEDNIGAQVLGLFTLSTGQDSWNQTN ?
Marked response: 51
